target_under_test: GST-Dm-Relish (Drosophila melanogaster, UniProt Q94527 99-473)
Sequence: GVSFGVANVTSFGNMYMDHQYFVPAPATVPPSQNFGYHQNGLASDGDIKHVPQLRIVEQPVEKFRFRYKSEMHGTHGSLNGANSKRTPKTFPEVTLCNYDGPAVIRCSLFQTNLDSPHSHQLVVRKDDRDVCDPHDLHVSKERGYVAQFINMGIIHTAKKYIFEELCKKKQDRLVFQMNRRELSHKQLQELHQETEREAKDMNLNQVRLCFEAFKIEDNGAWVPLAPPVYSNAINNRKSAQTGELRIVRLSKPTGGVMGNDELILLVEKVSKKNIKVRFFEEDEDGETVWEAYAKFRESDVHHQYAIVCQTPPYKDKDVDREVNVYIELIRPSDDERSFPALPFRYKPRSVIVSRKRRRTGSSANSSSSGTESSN
test_summary: protein-binding microarray (PBM); PBM: ~300 nM protein, 6 mM HEPES pH 7.8, 80 mM KCl, 0.5 mM EDTA, 0.5 mM EGTA, 6% glycerol, 35 ng/ul poly-dIdC, 1% milk, 1 h, room temperature; high values mean tight binding
study_conditions: dsDNA, one strand shown
measured_attribute: binding signal (z-score)
Answers are plain numbers, in z-score.

Provide binding signal for all items below, preserving their order.
1. CCGATTAACATCAGGGAATTCTATGATGTTAATCGGGTCTTGATTCGCTTGACGCTGCTG
2. CCGATTAACATCAAGGGGGTATCTGATGTTAATCGGGTCTTGATTCGCTTGACGCTGCTG

[3.59, 3.38]

Provide binding signal for all items below, preserving their order.
1. CCGATTAACATCACCGCCCCCCCTGATGTTAATCGGGTCTTGATTCGCTTGACGCTGCTG
2. CCGATTAACATCAAGGTTTTTCCTGATGTTAATCGGGTCTTGATTCGCTTGACGCTGCTG
3. CCGATTAACATCAGGGATTTTTATGATGTTAATCGGGTCTTGATTCGCTTGACGCTGCTG
4. CCGATTAACATCAATCCCCCCCCTGATGTTAATCGGGTCTTGATTCGCTTGACGCTGCTG

[4.88, 3.17, 7.93, 6.09]

Provide binding signal for all items below, preserving their order.
1. CCGATTAACATCAGGGGAATGACTGATGTTAATCGGGTCTTGATTCGCTTGACGCTGCTG
2. CCGATTAACATCACGGGGATTTATGATGTTAATCGGGTCTTGATTCGCTTGACGCTGCTG

5.22
8.32

Fill in: binding signal of CCGATTAACATCAGAAGTCCCCCTGATGTTAATCGGGTCTTGATTCGCTTGACGCTGCTG is ___
7.74

----------
target_under_test: GST-Hu-p50 (Homo sapiens, UniProt P19838 7-356)
Sequence (P19838 7-356): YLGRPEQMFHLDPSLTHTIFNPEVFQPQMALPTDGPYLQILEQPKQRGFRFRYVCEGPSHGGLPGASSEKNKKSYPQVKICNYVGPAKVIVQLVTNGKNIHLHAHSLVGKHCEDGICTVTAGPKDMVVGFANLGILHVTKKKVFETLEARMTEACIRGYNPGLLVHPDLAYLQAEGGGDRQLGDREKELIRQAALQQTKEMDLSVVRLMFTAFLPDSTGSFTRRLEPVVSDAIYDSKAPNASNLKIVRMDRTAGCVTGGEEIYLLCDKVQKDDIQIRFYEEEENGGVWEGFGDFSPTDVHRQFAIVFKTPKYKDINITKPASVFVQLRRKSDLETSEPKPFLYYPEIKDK
test_summary: protein-binding microarray (PBM); PBM: ~300 nM protein, 6 mM HEPES pH 7.8, 80 mM KCl, 0.5 mM EDTA, 0.5 mM EGTA, 6% glycerol, 35 ng/ul poly-dIdC, 1% milk, 1 h, room temperature; high values mean tight binding
study_conditions: dsDNA, one strand shown
measured_attribute: binding signal (z-score)
Give bare numbers, in z-score.

Provide binding signal for all items below, preserving their order.
1. CCGATTAACATCAACTTCCCCCCTGATGTTAATCGGGTCTTGATTCGCTTGACGCTGCTG
2. CCGATTAACATCAGATTTTCCCCTGATGTTAATCGGGTCTTGATTCGCTTGACGCTGCTG

[5.76, 6.35]

Provide binding signal for all items below, preserving their order.
1. CCGATTAACATCAGGGGGATTTATGATGTTAATCGGGTCTTGATTCGCTTGACGCTGCTG
2. CCGATTAACATCAGGGGAATACCTGATGTTAATCGGGTCTTGATTCGCTTGACGCTGCTG
3. CCGATTAACATCAGGGGGTGGGATGATGTTAATCGGGTCTTGATTCGCTTGACGCTGCTG

7.42
6.93
3.07

----------
target_under_test: GST-Dm-Relish (Drosophila melanogaster, UniProt Q94527 99-473)
Sequence: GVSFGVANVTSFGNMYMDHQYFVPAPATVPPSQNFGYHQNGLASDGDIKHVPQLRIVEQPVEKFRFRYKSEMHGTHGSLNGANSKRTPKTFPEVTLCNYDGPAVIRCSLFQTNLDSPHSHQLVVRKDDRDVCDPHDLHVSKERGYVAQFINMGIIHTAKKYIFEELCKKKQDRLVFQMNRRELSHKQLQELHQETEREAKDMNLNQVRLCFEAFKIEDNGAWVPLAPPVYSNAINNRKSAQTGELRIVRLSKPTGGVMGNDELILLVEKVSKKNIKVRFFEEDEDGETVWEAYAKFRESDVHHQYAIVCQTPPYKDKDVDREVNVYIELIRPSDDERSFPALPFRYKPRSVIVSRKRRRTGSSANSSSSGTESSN
test_summary: protein-binding microarray (PBM); PBM: ~300 nM protein, 6 mM HEPES pH 7.8, 80 mM KCl, 0.5 mM EDTA, 0.5 mM EGTA, 6% glycerol, 35 ng/ul poly-dIdC, 1% milk, 1 h, room temperature; high values mean tight binding
study_conditions: dsDNA, one strand shown
measured_attribute: binding signal (z-score)
One number for each entry, in z-score.

Provide binding signal for all items below, preserving their order.
1. CCGATTAACATCAAGACTTCCCCTGATGTTAATCGGGTCTTGATTCGCTTGACGCTGCTG
2. CCGATTAACATCAGAAATTTTCCTGATGTTAATCGGGTCTTGATTCGCTTGACGCTGCTG
3. CCGATTAACATCAAAAATTCCGTTGATGTTAATCGGGTCTTGATTCGCTTGACGCTGCTG
4. CCGATTAACATCAGGCGATCCCCTGATGTTAATCGGGTCTTGATTCGCTTGACGCTGCTG
5. CCGATTAACATCACAAAAGCCCCTGATGTTAATCGGGTCTTGATTCGCTTGACGCTGCTG

1. 7.71
2. 1.39
3. 1.08
4. 6.53
5. 6.85

----------
target_under_test: GST-Nv-NF-kB (Ser allele) (Nematostella vectensis, UniProt A7UNT2 2-411)
Sequence: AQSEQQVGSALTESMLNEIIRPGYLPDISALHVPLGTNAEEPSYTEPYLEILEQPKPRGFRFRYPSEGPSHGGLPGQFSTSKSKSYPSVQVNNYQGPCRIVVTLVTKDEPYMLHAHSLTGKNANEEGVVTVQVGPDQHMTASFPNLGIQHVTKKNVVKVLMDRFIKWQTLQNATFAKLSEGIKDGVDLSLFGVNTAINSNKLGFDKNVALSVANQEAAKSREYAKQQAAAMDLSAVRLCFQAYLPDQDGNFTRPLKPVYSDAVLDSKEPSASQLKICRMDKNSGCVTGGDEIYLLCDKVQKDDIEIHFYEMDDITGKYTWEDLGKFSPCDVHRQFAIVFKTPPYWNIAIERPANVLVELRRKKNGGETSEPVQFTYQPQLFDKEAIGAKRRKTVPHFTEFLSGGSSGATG
test_summary: protein-binding microarray (PBM); PBM: ~300 nM protein, 6 mM HEPES pH 7.8, 80 mM KCl, 0.5 mM EDTA, 0.5 mM EGTA, 6% glycerol, 35 ng/ul poly-dIdC, 1% milk, 1 h, room temperature; Ap Aiptasia and Nv Nematostella (sea anemones) / Co Capsaspora / Aq Amphimedon (sponge) / Dm Drosophila / Hu human; RHD is the Rel homology domain; high values mean tight binding
study_conditions: dsDNA, one strand shown
Task for the reader: assign each of the following sequences its reported binding signal.
One number for each entry, in z-score.

Below, 4 sequences whose answers are already recorded.
>  <sequence_input>
CCGATTAACATCAGGAAGCCCCCTGATGTTAATCGGGTCTTGATTCGCTTGACGCTGCTG

>  <target_under_test>
GST-Nv-NF-kB (Ser allele) (Nematostella vectensis, UniProt A7UNT2 2-411)

>  <binding signal / z-score>
3.93

$$$$
>  <sequence_input>
CCGATTAACATCAAGGGAAAAAATGATGTTAATCGGGTCTTGATTCGCTTGACGCTGCTG

>  <target_under_test>
GST-Nv-NF-kB (Ser allele) (Nematostella vectensis, UniProt A7UNT2 2-411)

>  <binding signal / z-score>
7.2

$$$$
>  <sequence_input>
CCGATTAACATCAGGGGGGAACCTGATGTTAATCGGGTCTTGATTCGCTTGACGCTGCTG

>  <target_under_test>
GST-Nv-NF-kB (Ser allele) (Nematostella vectensis, UniProt A7UNT2 2-411)

>  <binding signal / z-score>
6.89

$$$$
>  <sequence_input>
CCGATTAACATCAAGGGGATTTCTGATGTTAATCGGGTCTTGATTCGCTTGACGCTGCTG

>  <target_under_test>
GST-Nv-NF-kB (Ser allele) (Nematostella vectensis, UniProt A7UNT2 2-411)

>  <binding signal / z-score>
12.7

$$$$

Field: next sequence
Fill in: binding signal of CCGATTAACATCACGGGGAATCCTGATGTTAATCGGGTCTTGATTCGCTTGACGCTGCTG is ___
8.84
